Target: hsMTHFRCD-RD (Homo sapiens, UniProt P42898)
Construct: encompassing just the CD and RD (amino acids 38–644; hsMTHFRCD-RD); made in house
Sequence (P42898 38-644): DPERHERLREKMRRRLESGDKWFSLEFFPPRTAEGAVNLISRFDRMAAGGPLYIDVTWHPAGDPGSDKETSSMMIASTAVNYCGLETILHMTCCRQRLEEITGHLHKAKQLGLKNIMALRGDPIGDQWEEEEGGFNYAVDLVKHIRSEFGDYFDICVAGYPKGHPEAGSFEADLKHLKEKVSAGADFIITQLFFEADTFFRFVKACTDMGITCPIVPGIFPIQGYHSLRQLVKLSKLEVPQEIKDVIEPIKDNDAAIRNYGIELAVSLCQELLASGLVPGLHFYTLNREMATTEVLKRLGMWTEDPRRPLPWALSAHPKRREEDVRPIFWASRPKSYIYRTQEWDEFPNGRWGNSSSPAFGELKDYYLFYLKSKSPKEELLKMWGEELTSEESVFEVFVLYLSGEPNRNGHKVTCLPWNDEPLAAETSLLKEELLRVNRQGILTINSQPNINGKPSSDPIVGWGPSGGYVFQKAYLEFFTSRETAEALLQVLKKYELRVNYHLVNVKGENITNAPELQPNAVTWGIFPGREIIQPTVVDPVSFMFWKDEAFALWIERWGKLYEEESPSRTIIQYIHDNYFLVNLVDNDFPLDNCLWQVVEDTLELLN
Assay: Surface plasmon resonance, CD-RD construct
Type: binding
Details: SPR, as printed in Fig. 3A, read-out: Kd (dissociation constant)
Result type: pKd
Notebook: values listed as pKd are -log10 of the concentration (mol/L).

Challenge: // query pKd value for entry COc1ccc(CCNC(=O)[C@@H](N)CC[C@H](CNCc2ccccc2)C[C@H]2O[C@@H](n3cnc4c(N)ncnc43)[C@H](O)[C@@H]2O)cc1 [(S)-SKI-72]
Response given: 6.22

* * *

Molecular target: hsMTHFRCD-RD (Homo sapiens)
Construct: encompassing just the CD and RD (amino acids 38–644; hsMTHFRCD-RD); made in house
Experiment: MIDAS protein-metabolite interactomics (equilibrium dialysis FIA-MS), CD-RD construct
Format: binding
Conditions: Fig. 2B
Result type: MIDAS enrichment or depletion of metabolite

Worked set:
Molecule	Value measured
Nc1nc2c(c(=O)[nH]1)N(C=O)C(CNc1ccc(C(=O)N[C@@H](CCC(=O)O)C(=O)O)cc1)CN2 (some centres unmarked) [5-FTHF, 5-formyltetrahydrofolate]	enriched
NC(=O)C1=CN([C@@H]2O[C@H](COP(=O)(O)OP(=O)(O)OC[C@H]3O[C@@H](n4cnc5c(N)ncnc54)[C@H](O)[C@@H]3O)[C@@H](O)[C@H]2O)C=CC1 [NADH]	depleted
NC(=O)C1=CN([C@@H]2O[C@H](COP(=O)(O)OP(=O)(O)OC[C@H]3O[C@@H](n4cnc5c(N)ncnc54)[C@H](OP(=O)(O)O)[C@@H]3O)[C@@H](O)[C@H]2O)C=CC1 [NADPH]	depleted
Cc1cc2nc3c(=O)[nH]c(=O)nc-3n(C[C@H](O)[C@H](O)[C@H](O)COP(=O)(O)OP(=O)(O)OC[C@H]3O[C@@H](n4cnc5c(N)ncnc54)[C@H](O)[C@@H]3O)c2cc1C [FAD, flavin adenine dinucleotide]	enriched
Nc1nc(=O)c2nc(CNc3ccc(C(=O)N[C@@H](CCC(=O)O)C(=O)O)cc3)cnc2[nH]1 [folate]	enriched

Challenge: Reported MIDAS enrichment or depletion of metabolite, molecule CN1c2c(nc(N)[nH]c2=O)NCC1CNc1ccc(C(=O)N[C@@H](CCC(=O)O)C(=O)O)cc1 (some centres unmarked) [5-MTHF, 5-methyltetrahydrofolate] : ____
Response given: depleted

Challenge: What would you report for C[S+](CC[C@H](N)C(=O)[O-])C[C@H]1O[C@@H](n2cnc3c(N)ncnc32)[C@H](O)[C@@H]1O (some centres unmarked) [AdoMet, S-adenosylmethionine] ?
Response given: enriched

Challenge: Subsequent entry: Nc1ncnc2c1ncn2[C@@H]1O[C@H](CSCC[C@H](N)C(=O)O)[C@@H](O)[C@H]1O [AdoHcy, S-adenosylhomocysteine]
Response given: enriched

* * *

Test system hsMTHFRFL (Homo sapiens), Ki listed for each of the compounds.
Enter the number, and then the unit.

Compound	Ki
C[S+](CC[C@H](N)C(=O)[O-])C[C@H]1O[C@@H](n2cnc3c(N)ncnc32)[C@H](O)[C@@H]1O (some centres unmarked) [AdoMet, S-adenosylmethionine]	5.8 µM

Challenge: Find the recorded Ki belonging to COc1ccc(CCNC(=O)[C@@H](N)CC[C@H](CNCc2ccccc2)C[C@H]2O[C@@H](n3cnc4c(N)ncnc43)[C@H](O)[C@@H]2O)cc1 [(S)-SKI-72] and report it.
Response given: 0.78 µM
